# Read-out: Actin alpha 1 (ACTA1), ACTA1 (gene 58)
# ASSAY OVERVIEW: BSK_MyoF_ACTA1: BioMAP Diversity Plus: MyoF Assay for Actin alpha 1 (ACTA1) Biomarker Activity (AID 2284244)
# EXPERIMENTAL CONTEXT: primary human lung fibroblasts
Calls of active or inactive are those of the source. Rule for the calls: active = hit-call score of the fitted dose curve at least 0.9, where 1 is the maximum; inactive = score below 0.9.
Can you answer with just one of these options? True (active), False (inactive)

Past entries and their recorded results:
- SMILES DATA: "Oc1ccc(-c2ccccc2)cc1"
  LABEL CLASS: "False"
- SMILES DATA: "ClC1=C(Cl)[C@]2(Cl)[C@H]3[C@H]([C@H]4C=C[C@H]3C4)[C@@]1(Cl)C2(Cl)Cl"
  LABEL CLASS: "True"
- SMILES DATA: "CC(C)c1ccc(CO)cc1"
  LABEL CLASS: "False"
- SMILES DATA: "O=C(O)CCC(F)(C(F)(F)F)C(F)(F)F"
  LABEL CLASS: "False"

Asked: // outcome(item) with item = COc1cc(OC)nc(NC(=O)NS(=O)(=O)c2ncccc2C(=O)N(C)C)n1
Given back: False
